Test system: Dengue-2 (Strain New Guinea C)
Experiment: Dengue-2 viral yield assay in Vero cells
Format: cell-based
Details: Dengue virus, Vero, 48 h, read-out: Activity (anti-dengue 2 viral activity, EC50)
pEC50: −log10 of the molar value.
MEASURED QUANTITY: pEC50

COMPOUND: CC1CCN(C(=O)CSc2nc3ccccc3[nH]2)CC1
MEASURED QUANTITY: pEC50
MEAS VALUE: < 4.60

COMPOUND: O=C(CSc1nc2ccccc2o1)N1CCN(c2ccc(Cl)cc2)CC1
MEASURED QUANTITY: pEC50
MEAS VALUE: < 4.60

COMPOUND: NC(=O)C1CCN(C(=O)CSc2nc3ccccc3[nH]2)CC1
MEASURED QUANTITY: pEC50
MEAS VALUE: < 4.60

COMPOUND: COc1ccccc1C(=O)Nc1ccc2nc(SCC(=O)N3CCOCC3)sc2c1
MEASURED QUANTITY: pEC50
MEAS VALUE: < 4.60

COMPOUND: O=C(CSc1nc2ccccc2s1)N1CCCCC1
MEASURED QUANTITY: pEC50
MEAS VALUE: < 4.60

COMPOUND: NC(=O)C1(N2CCCCC2)CCN(C(=O)CSc2nc3ccccc3[nH]2)CC1
MEASURED QUANTITY: pEC50
MEAS VALUE: < 4.60

COMPOUND: CCn1c(SCC(=O)N2CCC(C(N)=O)(N3CCCCC3)CC2)nnc1-c1ccccc1
MEASURED QUANTITY: pEC50
MEAS VALUE: < 4.60

COMPOUND: O=C(CSc1nc2ccccc2[nH]1)N1CCN(c2ccc(F)cc2)CC1
MEASURED QUANTITY: pEC50
MEAS VALUE: 5.00 to 6.00

COMPOUND: O=C(O)c1ccc2oc(SCC(=O)N3CCCCC3)nc2c1
MEASURED QUANTITY: pEC50
MEAS VALUE: < 4.60

COMPOUND: O=C(Nc1ccc2nc(SCC(=O)N3CCOCC3)sc2c1)c1ccccc1
MEASURED QUANTITY: pEC50
MEAS VALUE: < 4.60

COMPOUND: NC(=O)C1(N2CCCCC2)CCN(C(=O)CSc2nc3ccccc3o2)CC1
MEASURED QUANTITY: pEC50
MEAS VALUE: > 6.00

COMPOUND: O=C(CSc1nc2ccccc2o1)N1CCN(c2ccccc2)CC1
MEASURED QUANTITY: pEC50
MEAS VALUE: < 4.60

COMPOUND: CCOc1ccc2nc(SCC(=O)N3CCc4ccccc4C3)sc2c1
MEASURED QUANTITY: pEC50
MEAS VALUE: 5.00 to 6.00

COMPOUND: O=C(CSc1nnc(CSc2nc3ccccc3s2)o1)NC1CCCCC1
MEASURED QUANTITY: pEC50
MEAS VALUE: < 4.60

COMPOUND: O=C(CSc1nc2ccccc2[nH]1)N1CCN(c2ccccc2)CC1
MEASURED QUANTITY: pEC50
MEAS VALUE: < 4.60

COMPOUND: O=C(CSc1nc2cc(Cl)ccc2o1)N1CCOCC1
MEASURED QUANTITY: pEC50
MEAS VALUE: < 4.60

COMPOUND: O=C(Nc1ccc2nc(SCC(=O)N3CCOCC3)sc2c1)c1ccccc1Br
MEASURED QUANTITY: pEC50
MEAS VALUE: < 4.60

COMPOUND: Nc1ccc2nc(SCC(=O)N3CCCC3)sc2c1
MEASURED QUANTITY: pEC50
MEAS VALUE: < 4.60

COMPOUND: CCCC(=O)Nc1ccc2nc(SCC(=O)N3CCN(c4ccccc4)CC3)sc2c1
MEASURED QUANTITY: pEC50
MEAS VALUE: < 4.60

COMPOUND: NC(=O)C1(N2CCCCC2)CCN(C(=O)CSc2nc3ccccc3s2)CC1
MEASURED QUANTITY: pEC50
MEAS VALUE: 5.00 to 6.00

COMPOUND: CCC(=O)Nc1ccc2nc(SCC(=O)N3CCN(c4ccccc4)CC3)sc2c1
MEASURED QUANTITY: pEC50
MEAS VALUE: < 4.60

COMPOUND: O=C1CC(N2CCN(c3nc4ccccc4s3)CC2)C(=O)N1c1ccc(F)cc1 (centres unmarked)
MEASURED QUANTITY: pEC50
MEAS VALUE: < 4.60

COMPOUND: Nc1ccc2nc(SCC(=O)N3CCOCC3)sc2c1
MEASURED QUANTITY: pEC50
MEAS VALUE: < 4.60

COMPOUND: NC(=O)C1CCN(C(=O)CSc2nc3ccccc3s2)CC1
MEASURED QUANTITY: pEC50
MEAS VALUE: < 4.60

COMPOUND: O=C(Nc1ccc2nc(SCC(=O)N3CCOCC3)sc2c1)c1ccc(Cl)cc1Cl
MEASURED QUANTITY: pEC50
MEAS VALUE: 5.00 to 6.00

COMPOUND: Cc1cccc(C(=O)Nc2ccc3nc(SCC(=O)N4CCOCC4)sc3c2)c1
MEASURED QUANTITY: pEC50
MEAS VALUE: 4.60 to 5.00
